study system: KRAS G12S (Homo sapiens (Human), UniProt P01116+P62937, G12S)
Sequence (P01116-2 other isoform, or with tags, fused parts or gaps G12S): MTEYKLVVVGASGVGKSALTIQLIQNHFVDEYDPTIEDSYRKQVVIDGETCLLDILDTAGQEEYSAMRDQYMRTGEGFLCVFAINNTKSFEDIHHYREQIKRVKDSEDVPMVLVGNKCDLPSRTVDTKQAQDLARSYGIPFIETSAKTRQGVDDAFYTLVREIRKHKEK
Sequence (P62937 whole entry): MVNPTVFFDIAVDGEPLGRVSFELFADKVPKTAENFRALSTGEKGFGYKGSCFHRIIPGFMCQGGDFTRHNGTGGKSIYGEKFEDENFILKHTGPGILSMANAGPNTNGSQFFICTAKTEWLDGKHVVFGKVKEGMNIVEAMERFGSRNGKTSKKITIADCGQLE
test description: Ras-Raf (BRAF RBD) disruption / FRET / MOA assay, KRAS G12S
Format: biochemical
condition context: Ras-Raf disruption/FRET/MOA assay; class symbols; read-out: KRAS G12S FRET data IC50
result type: IC50

Some solved entries appear below for comparison.
INSERT INTO results (compound, study_system, result_type, experimental_value) VALUES
  ('C=CC(=O)N1CC[C@H](C(=O)N(C)[C@H](C(=O)N[C@H]2Cc3cccc(c3)-c3ccc4c(c3)c(c(-c3cccnc3[C@H](C)OC)n4CC)CC(C)(C)COC(=O)[C@@H]3CCCN(N3)C2=O)C(C)C)[C@H]1C (atropisomer, axis not shown) [Example A373]', 'KRAS G12S (Homo sapiens (Human), UniProt P01116+P62937, G12S)', 'IC50', '1000 to 10000 nM'),
  ('C=CC(=O)N1CC(OC[C@H](C(=O)N[C@H]2Cc3cc(cc(C(F)F)c3)-c3ccc4c(c3)c(c(-c3cccnc3[C@H](C)OC)n4CC)CC(C)(C)COC(=O)[C@@H]3CCCN(N3)C2=O)C(C)C)C1 (atropisomer, axis not shown) [Example A345]', 'KRAS G12S (Homo sapiens (Human), UniProt P01116+P62937, G12S)', 'IC50', '> 10000 nM'),
  ('C=CC(=O)N(C)C1CCN(C(=O)N(C)[C@H](C(=O)N[C@H]2Cc3nc(cs3)-c3ccc4c(c3)c(c(-c3cccnc3[C@H](C)OC)n4CC)CC(C)(C)COC(=O)[C@@H]3CCCN(N3)C2=O)C(C)C)CC1 (atropisomer, axis not shown) [Example A383]', 'KRAS G12S (Homo sapiens (Human), UniProt P01116+P62937, G12S)', 'IC50', '10 to 100 nM');

Okay, next one:
Ask: Fill in the recorded IC50 for this compound, with KRAS G12S (Homo sapiens (Human), UniProt P01116+P62937, G12S) as test system: C=CC(=O)N1CC[C@H](C(=O)N(C)[C@H](C(=O)N[C@H]2Cc3cc(O)cc(c3)-c3ccc4c(c3)c(c(-c3cccnc3COC)n4CC#N)CC(C)(C)COC(=O)[C@@H]3CCCN(N3)C2=O)C(C)C)C1 [Example A093]
Result: 100 to 1000 nM

* * *

Reported pIC50 values follow for various compounds
study system: K-Ras G12C (Homo sapiens (Human), UniProt P01116+P62937, G12C)
Sequence (P01116-2 other isoform, or with tags, fused parts or gaps G12C): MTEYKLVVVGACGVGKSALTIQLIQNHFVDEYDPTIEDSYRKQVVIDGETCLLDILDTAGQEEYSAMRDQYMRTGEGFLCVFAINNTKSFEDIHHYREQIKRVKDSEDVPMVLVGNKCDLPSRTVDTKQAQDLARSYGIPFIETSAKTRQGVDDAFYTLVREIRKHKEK
Sequence (P62937 whole entry): as the sequence (P62937 whole entry) above
test description: Ras-Raf (BRAF RBD) disruption / FRET / MOA assay, KRAS G12C
Type: biochemical
condition context: KRAS G12C; Ras-Raf disruption/FRET/MOA assay; read-out: IC50* KRAS G12C FRET data
pIC50: −log10 of the molar value.

INSERT INTO measurements (compound, study_system, result_type, experimental_value) VALUES
  ('CCn1c(-c2cccnc2[C@H](C)OC)c2c3cc(ccc31)-c1cccc(c1)C[C@H](NC(=O)[C@H](C(C)C)N1CO[C@@]3(CCN(C(=O)C#CC(C)(C)N4CCC4)C3)C1=O)C(=O)N1CCC[C@H](N1)C(=O)OCC(C)(C)C2 (atropisomer, axis not shown)', 'K-Ras G12C (Homo sapiens (Human), UniProt P01116+P62937, G12C)', 'pIC50', '7.00 to 8.00'),
  ('C=CC(=O)N1CC[C@H]2[C@@H]1CN2C(=O)N(C)[C@H](C(=O)N[C@H]1Cc2nc(cs2)-c2ccc3c(c2)c(c(-c2cccnc2[C@H](C)OC)n3CC)CC(C)(C)COC(=O)[C@@H]2CCCN(N2)C1=O)C(C)C (atropisomer, axis not shown)', 'K-Ras G12C (Homo sapiens (Human), UniProt P01116+P62937, G12C)', 'pIC50', '6.00 to 7.00'),
  ('C=CC(=O)C1CC[C@H](C(=O)N(C)[C@H](C(=O)N[C@H]2Cc3cc(O)cc(c3)-c3ccc4c(c3)c(c(-c3cnn(C)c3[C@H](C)OC)n4CC)CC(C)(C)COC(=O)[C@@H]3CCCN(N3)C2=O)C(C)C)C1 (stereo partly shown)', 'K-Ras G12C (Homo sapiens (Human), UniProt P01116+P62937, G12C)', 'pIC50', '7.00 to 8.00');

Okay, next one:
Ask: What measured pIC50 goes with C=CC(=O)N1CC2(CCN([C@H](C(=O)N[C@H]3Cc4cc(O)cc(c4)-c4ccc5c(c4)c(c(-c4cccnc4[C@H](C)OC)n5CC)CC(C)(C)COC(=O)[C@@H]4CCCN(N4)C3=O)C(C)C)C2=O)C1 (atropisomer, axis not shown) ?
Result: > 8.00
